Biological target: human Akt1 kinase (kinase domain residues R144-A480, activated with PDK1) (Homo sapiens, UniProt P31749)
Sequence (P31749 144-480): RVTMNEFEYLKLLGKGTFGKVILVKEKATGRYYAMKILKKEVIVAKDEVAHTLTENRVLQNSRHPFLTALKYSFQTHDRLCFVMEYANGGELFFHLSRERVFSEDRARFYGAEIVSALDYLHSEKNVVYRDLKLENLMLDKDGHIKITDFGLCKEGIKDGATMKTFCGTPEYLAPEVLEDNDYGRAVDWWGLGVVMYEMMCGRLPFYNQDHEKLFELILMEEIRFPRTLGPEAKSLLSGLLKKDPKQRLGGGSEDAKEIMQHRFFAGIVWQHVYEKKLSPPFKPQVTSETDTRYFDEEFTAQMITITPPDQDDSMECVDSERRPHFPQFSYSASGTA
Assay: Akt1 kinase assay, Luciferase-Coupled Chemiluminescent Kinase assay (LCCA)
Conditions: 1 μM ATP, 1.3 nM Akt1; read-out: Akt-1 inhibition IC50
pIC50: −log10 of the molar value.
property: pIC50

# smiles_data, property, value_observed
data = [
    ("CN(C)CCNC(=O)C(=O)N(c1ccc(Cl)cc1)C1CCN(c2ncnc3[nH]nc(Br)c23)CC1", "pIC50", "> 7.30"),
    ("CCN(CC)CCO[C@@H](c1ccc(Cl)cc1)C1CCN(c2ncnc3[nH]nc(Br)c23)CC1", "pIC50", "> 7.30"),
    ("COCCN1CCN(c2ncnc3[nH]nc(Br)c23)CC1", "pIC50", "< 5.70"),
    ("Clc1ccc([C@H](OCCN2CCCC2)C2CCN(c3ncnc4[nH]nc(Br)c34)CC2)cc1", "pIC50", "> 7.30"),
]

These entries and their values trace back to patent US7994172B2.
